TESTED_ON: Group 3 secretory phospholipase A2 (Homo sapiens)
METHOD: human group III sPLA2 inhibitors, primary screen, biochemical, QFRET, BODIPY PC-A2 liposome substrate (AID 743126);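 note: 0% = median of test compound wells and 100% = no enzyme DMSO wells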
CONDITIONS: QFRET BODIPY PC-A2 liposome hydrolysis, fluorescence; at 12.2 µM; stronger effect = higher value
Out of some 370,000 compounds screened, about 2,100 (0.57%) were called active. What follows is part of a selection rich in actives, with near analogues and random picks from the rest.
MEASURED_PROPERTY: inhibition (%)
Supply the numeric figure in %, leaving out any unit text.

Known inhibition results, listed for orientation:
[
  {
    "MOLECULE": "COc1ccc(C(=O)NCCSc2ccccc2C)cc1",
    "ASSAY_VALUE": -6.45
  },
  {
    "MOLECULE": "C#CCCN([C@H](C(=O)OC)C(C)C)S(=O)(=O)c1ccc(F)cc1Br",
    "ASSAY_VALUE": 3.19
  },
  {
    "MOLECULE": "N#Cc1ccccc1NC(=O)COc1c(Br)cc(Br)c2cccnc12",
    "ASSAY_VALUE": 5.73
  },
  {
    "MOLECULE": "CC(=O)NC(c1cccs1)c1cc(Br)c2cccnc2c1O (stereo not drawn)",
    "ASSAY_VALUE": 22
  },
  {
    "MOLECULE": "CCS(=O)(=O)N1Cc2ccccc2CC1C(=O)Nc1ccc(OC)cc1OC (stereo not drawn)",
    "ASSAY_VALUE": -0.28
  },
  {
    "MOLECULE": "N#Cc1ccc(OC[C@@H](O)CN2CCC(C(O)(c3ccccc3)c3ccccc3)CC2)c(F)c1",
    "ASSAY_VALUE": -15.8
  }
]

Incoming: Recall the recorded inhibition for `COC(=O)c1ccc2nc(-c3ccccc3)c(Cc3ccc(OC)cc3C)n2c1` with Group 3 secretory phospholipase A2 (Homo sapiens) and state it.
Outgoing: -8.3

Incoming: Another molecule: `CCCCn1c(N)c(N(CCOC)C(=O)CSCC(=O)Nc2cccc(C)c2)c(=O)[nH]c1=O`
Outgoing: 0.3

Incoming: Another molecule: `NS(=O)(=O)c1ccc(CNC(=S)NC(=O)c2ccco2)cc1`
Outgoing: -1.55

Incoming: Another molecule: `COc1ccc(/C=C(/NC(=O)c2ccco2)C(=O)Nc2ccc(C(C)=O)cc2)cc1`
Outgoing: 10.6

Incoming: Another molecule: `CCOC(=O)c1cccc(NC(=O)CN(C)S(=O)(=O)c2ccc(-c3cocn3)s2)c1`
Outgoing: -2.93

Incoming: Another molecule: C=C1C(C(C)C)N(C)C2=NC(c3ccccc3)CC(=O)N12 (stereo not drawn)
Outgoing: 0
